Assay: self-splicing fitness, log relative to wild type (ln ratio); higher = more splicing; Tetrahymena group I intron in knt gene, E. coli kanamycin selection, DiMSum; sequences stand for … in CUCUCU…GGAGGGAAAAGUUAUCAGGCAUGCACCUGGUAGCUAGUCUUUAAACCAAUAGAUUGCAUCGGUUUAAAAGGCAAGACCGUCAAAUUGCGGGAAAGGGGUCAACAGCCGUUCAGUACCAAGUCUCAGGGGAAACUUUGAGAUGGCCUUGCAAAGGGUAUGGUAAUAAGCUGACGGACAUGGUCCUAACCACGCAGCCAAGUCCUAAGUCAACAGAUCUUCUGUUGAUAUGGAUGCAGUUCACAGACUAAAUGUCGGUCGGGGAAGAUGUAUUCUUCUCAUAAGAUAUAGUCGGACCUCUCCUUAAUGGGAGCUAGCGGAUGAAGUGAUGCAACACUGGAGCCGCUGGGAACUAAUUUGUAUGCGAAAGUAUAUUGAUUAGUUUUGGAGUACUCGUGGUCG;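 further: selection with 25 µg/mL kanamycin versus none on LB agar overnight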
Details: 37 °C
Where self-splicing fitness (ln) equals or exceeds -3, the correct label is 1; where it does not, the label is 0.

Query: Check the entry "CACGAGCAAUAUUACGGAUA" : does self-splicing fitness (ln) equal or exceed -3?
Response: 1

Query: Could you tell me if the measured self-splicing fitness (ln) of "UCAAAGCAAUAUUACGUGGC" reaches -3 or more?
Response: 1

Query: Could you verify whether the entry "ACGAAGCAAUAUUACGUGCC" shows self-splicing fitness (ln) of no less than -3?
Response: 1

Query: Test whether the sequence "CAAUAGCAAUAUUACGGUCU" records self-splicing fitness (ln) of -3 or higher.
Response: 0

Query: Check this sequence for self-splicing fitness (ln) at or above -3: "UAGAAGCAAUAUUACGCUAC"
Response: 1

Query: Tell me whether self-splicing fitness (ln) is at least -3 here: "AGUUAGCAAUAUUACGAGUG"
Response: 1

---

Assay: self-splicing fitness, log relative to wild type (ln ratio); higher = more splicing; Tetrahymena group I intron in knt gene, E. coli kanamycin selection, DiMSum; sequences stand for … in CUCUCU…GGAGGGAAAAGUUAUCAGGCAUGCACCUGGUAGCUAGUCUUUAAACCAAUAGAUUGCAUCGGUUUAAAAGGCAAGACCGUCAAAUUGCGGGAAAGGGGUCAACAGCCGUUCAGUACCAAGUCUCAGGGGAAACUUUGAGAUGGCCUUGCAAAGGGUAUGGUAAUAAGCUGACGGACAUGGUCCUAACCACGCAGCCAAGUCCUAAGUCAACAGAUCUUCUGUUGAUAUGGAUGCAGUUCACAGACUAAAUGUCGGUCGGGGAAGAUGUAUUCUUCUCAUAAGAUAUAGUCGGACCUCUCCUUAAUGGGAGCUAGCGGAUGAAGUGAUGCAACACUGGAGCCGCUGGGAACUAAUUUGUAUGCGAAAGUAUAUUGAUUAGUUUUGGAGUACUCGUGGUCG
Settings: 37 °C
measure.name: self-splicing fitness (ln)
API doc: respond with a numeric literal and nothing else, no unit.

Query: Look up self-splicing fitness (ln) for this sequence: "GGGAAGCAAUAUUACGUGUA"
Response: -0.669

Query: So what does the record say about self-splicing fitness (ln) for "GACCAGCAAUAUUACGCUAU" ?
Response: 0.126

Query: What self-splicing fitness (ln) value was documented for this sequence, "GGAUAGCAAUAUUACGCUAG" ?
Response: -1.21

Query: # lookup: self-splicing fitness (ln) of "AACCAGCAAUAUUACGUGCC"
Response: -0.956

Query: # self-splicing fitness (ln) lookup, item "GCACAGCAAUAUUACGGGCA"
Response: -0.886

Query: State the recorded self-splicing fitness (ln) for this entry: "AUCCAGCAAUAUUACGAAGG"
Response: -2.8

Query: Need self-splicing fitness (ln) of "GUGCAGCAAUAUUACGGGAG" , thanks.
Response: -1.44

Query: # query: self-splicing fitness (ln) of entry "AUAAAGCAAUAUUACGCAGA"
Response: -0.796

Query: Data request, read-out self-splicing fitness (ln), for "AUAUAGCAAUAUUACGAGUU"
Response: -1.46

Query: Name the recorded self-splicing fitness (ln) for "UGUCAGCAAUAUUACGUAUU" .
Response: -0.932

Query: Find the recorded self-splicing fitness (ln) belonging to "CGCUAGCAAUAUUACGACGG" and report it.
Response: 0.553

Query: Dear colleague, I am looking for the recorded self-splicing fitness (ln) of the following sequence: "UCUAAGCAAUAUUACGCAGG"
Response: -2.36

Query: Any idea what self-splicing fitness (ln) was measured for "AAUAAGCAAUAUUACGCGUG" ?
Response: -0.455

Query: Given the entry "AGCAAGCAAUAUUACGCUUC" , report its measured self-splicing fitness (ln).
Response: -3.29

Query: What value of self-splicing fitness (ln) has been recorded for this entry: "GACAAGCAAUAUUACGAGAU"
Response: -2.78

Query: // returns reported self-splicing fitness (ln) for input "CCCCAGCAAUAUUACGGCCA"
Response: -2.16

Query: What does the record list as self-splicing fitness (ln) for "CGGGAGCAAUAUUACGUGAU" ?
Response: -0.773

Query: Data request, read-out self-splicing fitness (ln), for "AGACAGCAAUAUUACGGAUU"
Response: -1.45

Query: Data request, read-out self-splicing fitness (ln), for "CUUUAGCAAUAUUACGCUCU"
Response: -1.3

Query: # query: self-splicing fitness (ln) of entry "CAUAAGCAAUAUUACGCCGC"
Response: -1.59

Query: Dear colleague, I am looking for the recorded self-splicing fitness (ln) of the following sequence: "AGGGAGCAAUAUUACGAUUA"
Response: -2.51

Query: Requested read-out: self-splicing fitness (ln). Entry: "AAUGAGCAAUAUUACGUAAC"
Response: -2.45

Query: Fill blank: measured self-splicing fitness (ln) of the sequence "GUGAAGCAAUAUUACGGGUA" is ____.
Response: -1.23

Query: Give its self-splicing fitness (ln) value. Item: "AUUAAGCAAUAUUACGUUUA"
Response: -1.54

Query: What value of self-splicing fitness (ln) has been reported for the following sequence? "CACGAGCAAUAUUACGUUUU"
Response: -2.94

Query: Fill blank: measured self-splicing fitness (ln) of the sequence "CGAUAGCAAUAUUACGCUGG" is ____.
Response: -1.43

Query: Given the entry "AUUAAGCAAUAUUACGAAAG" , report its measured self-splicing fitness (ln).
Response: -1.23

Query: Could you tell me which self-splicing fitness (ln) is on file for "GCCAAGCAAUAUUACGAAGU" ?
Response: -0.235

Query: For the sequence shown here, "GGAGAGCAAUAUUACGUAAG" , give the reported self-splicing fitness (ln).
Response: -0.478

Query: Report self-splicing fitness (ln) for "GUAUAGCAAUAUUACGGGGU" please.
Response: -1.4

Query: self-splicing fitness (ln) lookup needed for "UAAAAGCAAUAUUACGAUUA" , thanks.
Response: 0.0591

Query: Can you look up the measured self-splicing fitness (ln) of "AGCGAGCAAUAUUACGGGAC" for me?
Response: -2.99

Query: Could you share which self-splicing fitness (ln) value was measured for "AUCCAGCAAUAUUACGGUCC" ?
Response: -0.176

Query: Any idea what self-splicing fitness (ln) was measured for "ACACAGCAAUAUUACGUGCU" ?
Response: -0.611

Query: I have this sequence here, "AAGGAGCAAUAUUACGAGAG" , and I need its recorded self-splicing fitness (ln).
Response: -2.58

Query: Recorded self-splicing fitness (ln) for "CAGUAGCAAUAUUACGUGGA" , please?
Response: -3.63

Query: Returns the measured self-splicing fitness (ln) for the input sequence. Input: "CUCAAGCAAUAUUACGGAUC"
Response: -2.19

Query: Need self-splicing fitness (ln) of "CAUUAGCAAUAUUACGCAUG" , thanks.
Response: -3.16

Query: Sample "UGGCAGCAAUAUUACGUUCC" — what was its self-splicing fitness (ln)?
Response: -1.09

Query: # input sequence: "GGCAAGCAAUAUUACGAACG" ; wanted: its self-splicing fitness (ln)
Response: -0.593

Query: So what does the record say about self-splicing fitness (ln) for "CAGGAGCAAUAUUACGCAAU" ?
Response: -1.35

Query: Need self-splicing fitness (ln) of "GCGAAGCAAUAUUACGCAUG" , thanks.
Response: -2.76

Query: Param item = "GCGUAGCAAUAUUACGCCGA" ; retrieve measured self-splicing fitness (ln).
Response: -2.28

Query: So what's the measured self-splicing fitness (ln) for this one? "CAGUAGCAAUAUUACGCGUU"
Response: -1.64

Query: Given the sequence "AUGCAGCAAUAUUACGACGC" , what is its reported self-splicing fitness (ln)?
Response: -1.32

Query: Look at this sequence and give its reported self-splicing fitness (ln). "AUAAAGCAAUAUUACGGCCG"
Response: 0.3

Query: Entry "CAUUAGCAAUAUUACGCGGA" : reported self-splicing fitness (ln) = ?
Response: -1

Query: # input sequence: "UCUCAGCAAUAUUACGGAGU" ; wanted: its self-splicing fitness (ln)
Response: -2.49

Query: Can you look up the measured self-splicing fitness (ln) of "GCCCAGCAAUAUUACGGGAG" for me?
Response: -0.496

Query: // query self-splicing fitness (ln) value for entry "AGAAAGCAAUAUUACGCACU"
Response: -1.17

Query: Tell me the measured self-splicing fitness (ln) of "AAGAAGCAAUAUUACGGAGG" , please.
Response: -2.96
